Reference for the values: patent US20210323913A1

Property Label: pKi
When answering, recall that pKi equals minus log10 of the concentration in mol/L, and write that number alone.

Ask: Fill in: pKi on D3 (Homo sapiens, UniProt P35462), entry CN(C(=O)OCc1ccccc1)C1CCCc2ccc(N3CCN(CCCO)CC3)cc21 (centres unmarked) [MDW-1-177]
Sequence (P35462 whole entry): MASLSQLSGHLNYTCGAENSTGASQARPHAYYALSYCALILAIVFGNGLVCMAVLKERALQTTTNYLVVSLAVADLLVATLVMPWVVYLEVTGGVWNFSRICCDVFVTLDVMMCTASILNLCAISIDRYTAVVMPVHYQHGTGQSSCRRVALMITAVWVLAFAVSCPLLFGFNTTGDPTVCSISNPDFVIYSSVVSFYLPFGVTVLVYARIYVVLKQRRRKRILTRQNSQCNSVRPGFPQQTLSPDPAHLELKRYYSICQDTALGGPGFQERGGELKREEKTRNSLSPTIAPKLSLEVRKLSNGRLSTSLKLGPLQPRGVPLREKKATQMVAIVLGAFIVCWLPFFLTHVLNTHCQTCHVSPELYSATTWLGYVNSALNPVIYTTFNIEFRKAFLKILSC
Reply: 6.22

Ask: Give pKi for CCCN(C(=O)OCc1ccccc1)C1CCCc2ccc(N3CCN(CCC(=O)OCC)CC3)cc21 (centres unmarked) [MDW-1-191] tested on D3 (Homo sapiens, UniProt P35462).
Reply: 6.50

Ask: Report value only: pKi, D3 (Homo sapiens, UniProt P35462), CCCN1CCN(c2ccc3c(c2)C(N(CCC)C(=O)OCc2ccccc2)CCC3)CC1 (centres unmarked) [MDW-1-196]
Reply: 6.75

Ask: Look up D3 (Homo sapiens, UniProt P35462) data: pKi of CN(C(=O)OCc1ccccc1)C1CCCc2ccc(N3CCN(C4CCCC4)CC3)cc21 (centres unmarked) [MDW-1-140] , then report it.
Reply: 6.34

Ask: Give measured pKi for CCN(CC)C(=O)CCN1CCN(c2ccc3c(c2)C(N(C)C(=O)OCc2ccccc2)CCC3)CC1 (centres unmarked) [MDW-1-213] (D3 (Homo sapiens, UniProt P35462)).
Reply: 6.07
